The reported measurements were obtained from paper PMC6532394.

Molecular target: MeCP2 (full-length) (human, UniProt P51608 1-486)
Sequence (P51608 whole entry): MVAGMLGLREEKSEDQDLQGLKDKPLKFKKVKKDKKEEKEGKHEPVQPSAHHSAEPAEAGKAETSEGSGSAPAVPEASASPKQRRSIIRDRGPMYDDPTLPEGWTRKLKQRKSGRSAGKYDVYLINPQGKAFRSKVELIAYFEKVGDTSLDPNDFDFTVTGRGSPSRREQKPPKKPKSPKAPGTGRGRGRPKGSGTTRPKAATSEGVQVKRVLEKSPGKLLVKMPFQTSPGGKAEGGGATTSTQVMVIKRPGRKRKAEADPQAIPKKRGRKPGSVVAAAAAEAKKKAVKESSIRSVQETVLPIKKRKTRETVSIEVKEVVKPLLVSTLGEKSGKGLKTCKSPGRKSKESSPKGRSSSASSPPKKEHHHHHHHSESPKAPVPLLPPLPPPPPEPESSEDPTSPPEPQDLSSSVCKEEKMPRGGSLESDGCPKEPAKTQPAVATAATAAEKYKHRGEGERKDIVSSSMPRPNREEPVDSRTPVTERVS
Test: fluorescence anisotropy
reportedMetric: pKd
Formally, pKd is defined as -log10 of the concentration c, with c in mol/L.

Which pKd reading was recorded for the binder mCpG 20 bp duplex (m/m) (dsDNA, 5mC at CpG C of both strands (strand 1 C8, strand 2 C12)) DNA 1: TCTGGAACGGAATTCTTCTA DNA 2: TAGAAGAATTCCGTTCCAGA ?
8.28
